# pEC50 listing for each entry below
Biological target: BRAF-GTP-KRAS-G12C complex (Homo sapiens, UniProt P01116+P62937, G12C)
Construct: 50 nM of His6-KRas G12C-GTP (1-169); 500 nM of tagless CypA (1-165)
Test: KRAS-BRAF complex disruption through competition with CYPA-compound by TR-FRET
Settings: biochemical BRAF-KRAS G12C-GTP disruption assay EC50, with CYPA
pEC50: −log10 of the molar value.

Consider the reported pEC50 for these compounds:
>>> result("C=CC(=O)N1CCC(C(=O)N(C)C(C(=O)NC2Cc3cc(O)cc(c3)-c3ccc4c(c3)c(cn4-c3cc(COC)ccc3C#N)CC(C)(C)COC(=O)C3CCCN(N3)C2=O)C(C)C)C1 (stereo not drawn) [Compound 393]")
"5.30 to 6.30"
>>> result("CCc1cn2c3cc(ccc13)-c1cc(O)cc(c1)CC(NC(=O)C(C(C)C)N(C)C(=O)C1CN(C(=O)CCl)C1)C(=O)N1CCCC(N1)C(=O)OCC(C)(C)C2 (stereo not drawn) [Compound 99]")
"≥ 6.30"
>>> result("CC(C)[C@@H](C(=O)N[C@H]1Cc2cc(O)cc(c2)-c2ccc3c(CCC#N)cn(c3c2)C[C@H](C)COC(=O)[C@@H]2CCCN(N2)C1=O)N(C)C(=O)C1CN(C(=O)CCl)C1 [Compound 76]")
"≥ 6.30"

Prompt: Input CC1COC(=O)[C@@H]2CCCN(N2)C(=O)[C@@H](NC(=O)[C@H](C(C)C)N(C)C(=O)C2CN(C(=O)CCl)C2)Cc2cc(O)cc(c2)-c2ccc3c(S(C)(=O)=O)cn(c3c2)C1 (single isomer, unassigned) [Compound 111] , output reported pEC50.
Response: ≥ 6.30

Prompt: Input CC#CC(=O)N1CC(C(=O)N(C)[C@H](C(=O)N[C@H]2Cc3cc(O)cc(c3)-c3ccc4c(c3)n(c(=O)n4C)CC(C)(C)COC(=O)[C@@H]3CCCN(N3)C2=O)C(C)C)C1 [Compound 190] , output reported pEC50.
Response: 5.30 to 6.30

Prompt: Input Cc1nc2ccc3cc2n1CC(C)(C)COC(=O)[C@@H]1CCCN(N1)C(=O)[C@@H](NC(=O)[C@H](C(C)C)N1CCN(C(=O)CCl)CC1=O)Cc1cc(O)cc-3c1 [Compound 146] , output reported pEC50.
Response: 5.30 to 6.30

Prompt: Input CNC(=O)c1cc2ccc3cc2n1CC(C)COC(=O)C1CCCN(N1)C(=O)C(NC(=O)C(C(C)C)N(C)C(=O)C1CN(C(=O)CCl)C1)Cc1cc(O)cc-3c1 (stereo not drawn) [Compound 115] , output reported pEC50.
Response: ≥ 6.30

Prompt: Input C=CC(=O)N1CCN([C@H](C(=O)N[C@H]2Cc3cc(O)cc(c3)-c3ccc4nc(CC)n(c4c3)CCCOC(=O)[C@@H]3CCCN(N3)C2=O)C(C)C)C1=O [Compound 141] , output reported pEC50.
Response: 5.30 to 6.30

Prompt: Input CC1COC(=O)C2CCCN(N2)C(=O)C(NC(=O)C(C(C)C)N(C)C(=O)C2CN(C(=O)CCl)C2)Cc2cc(O)cc(c2)-c2ccc3c(C(C)C#N)cn(c3c2)C1 (stereo not drawn) [Compound 77] , output reported pEC50.
Response: ≥ 6.30

Prompt: Input Cc1nc2ccc3cc2n1CC1(CC1)COC(=O)[C@@H]1CCCN(N1)C(=O)[C@@H](NC(=O)[C@H](C(C)C)N(C)C(=O)C1CN(C(=O)CCl)C1)Cc1cc(O)cc-3c1 [Compound 151] , output reported pEC50.
Response: ≥ 6.30

Prompt: Input CC(C)[C@@H](C(=O)N[C@H]1Cc2cc(O)cc(c2)-c2ccc3c(CCC#N)cn(c3c2)CC(C)(C)COC(=O)[C@@H]2CCCN(N2)C1=O)N(C)C(=O)C1CN(C(=O)CCl)C1 [Compound 256] , output reported pEC50.
Response: ≥ 6.30

Prompt: Input C=CC(=O)N1CC(C(=O)N(C)[C@H](C(=O)N[C@H]2Cc3cc(O)cc(c3)-c3ccc4c(C5CCN(C)CC5)nn(c4c3)CC(C)(C)COC(=O)[C@@H]3CCCN(N3)C2=O)C(C)C)C1 [Compound 232] , output reported pEC50.
Response: 5.30 to 6.30
